molecular target: T1, soluble extracellular region of human CD38 fused to a 6-His-tag (human, UniProt P28907 43-300); assay: SPR, antibody captured on protein G, CD38 injected
T1 construct: Expressed with the murine VJ2C leader; also called human CD38 protein; human CD38 antigen
property label: pKd
Scale note: pKd = -log10(concentration in M).

# binder, pKd
records = [
    ("humanized 9G7 best-framework antibody (antibody, human IgG1, kappa, V domains shown, Human IgG1) VH: EVQLVESGGGLVQPGGSLRLSCAFSGLSLSTSGKGVGWIRQAPGKGLEWLAHIWWDDDKRYNPALKSRLTISKDTSKNTVYLQMNSLRAEDTAVYYCARIELGRSYVMDYWGQGTLVTVSS VL: DIQMTQSPSSLSASVGDRVTITCRASQDVITSVAWFQQKPGKAPKLLIYSASYRYTGVPSRFSGSGSGTDFTLTISSLQPEDFATYYCQQHYTIPLTFGQGTKVEIKR", 9.40),
]

Exam item: Could you share which pKd value was measured for humanized 9G7 best-fit antibody (antibody, human IgG1, kappa, V domains shown, Human IgG1; light chain carries the F36Y back mutation (Kabat); also called 9G7 best-fit F36Y humanized variant) VH: QVTLKESGPTLVKPTQTLTLTCTFSGLSLSTSGKGVGWIRQPPGKALEWLAHIWWDDDKRYNPALKSRLTITKDTSKNQVVLTMTNMDPVDTATYYCARIELGRSYVMDYWGQGTLVTVSS VL: DIQMTQSPSSLSASVGDRVTITCQASQDVITSVAWYQQKPGKAPKLLIYSASYRYTGVPSRFSGSGSGTDFTFTISSLQPEDIATYYCQQHYTIPLTFGQGTKLEIKR ?
Marked response: 9.30

Exam item: Same read-out for chimeric HB-7 antibody (antibody, human IgG1, kappa, V domains shown) VH: KVQLQESGPSLVQPSQRLSITCTVSGFSLISYGVHWVRQSPGKGLEWLGVIWRGGSTDYNAAFMSRLSITKDNSKSQVFFKMNSLQADDTAIYFCAKTLITTGYAMDYWGQGTTVTVSS VL: DIELTQSPSSFSVSLGDRVTITCKASEDIYNRLAWYQQKPGNAPRLLISGATSLETGVPSRFSGSGSGKDYTLSITSLQTEDVATYYCQQYWSTPTFGGGTKLEIKR ?
Marked response: 8.60
